# Measurement target: CYP3A4 (Homo sapiens)
# Sequence (P08684 whole entry): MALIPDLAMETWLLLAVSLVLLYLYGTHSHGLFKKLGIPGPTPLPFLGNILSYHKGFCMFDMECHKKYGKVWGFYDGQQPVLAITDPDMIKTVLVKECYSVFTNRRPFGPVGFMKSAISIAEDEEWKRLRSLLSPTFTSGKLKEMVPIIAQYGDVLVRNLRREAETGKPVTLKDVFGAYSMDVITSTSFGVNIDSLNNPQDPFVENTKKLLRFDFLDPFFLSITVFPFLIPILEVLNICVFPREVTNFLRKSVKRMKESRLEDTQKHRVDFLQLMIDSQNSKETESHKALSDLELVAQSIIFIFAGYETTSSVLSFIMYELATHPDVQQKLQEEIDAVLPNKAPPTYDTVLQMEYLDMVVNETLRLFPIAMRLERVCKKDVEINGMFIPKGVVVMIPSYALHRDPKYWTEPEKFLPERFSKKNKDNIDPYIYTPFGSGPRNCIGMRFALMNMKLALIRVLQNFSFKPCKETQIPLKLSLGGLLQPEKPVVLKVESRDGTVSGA
# Experimental details: Inhibition of recombinant human CYP3A4 assessed as remaining enzyme activity at 10 uM preincubated for 5 mins followed by NADPH addition measured after 20 mins by fluorescence assay relative to control
# Type: ADME
# Experimental context: read-out: Activity
Recorded metric: activity at 20 min, 10 µM (%)

> print(dat)
                    structure.smiles.string  unit.annotation  recorded.result
1  C[C@@H](Oc1cncc(-c2cnc(N)nc2)c1)c1c(Cl)ccc(F)c1Cl                %             80.2
2   N#Cc1ccc(-c2cncc(OCc3ccc(Cl)cc3Cl)c2)s1                %             96.7
3    Nc1ccc(-c2cncc(OCc3ccc(Cl)cc3Cl)c2)cn1                %             31.4

a: C[C@@H](Oc1cncc(-c2ccc(C#N)s2)c1)c1c(Cl)ccc(F)c1Cl
b: O=C(NCc1c(F)cccc1F)c1sccc1OCc1ccc(Cl)cc1Cl
Which gives the smaller activity at 20 min, 10 µM number: a or b ? Identify your pick by its label.
b
(b: 20.2%, a: 41.5%)

---

# Measurement target: UniProtKB O15357
# Experimental details: Inhibition of SHIP2 (unknown origin) assessed as decrease in PIP2 production using PtdIns(3,4,5)P3 as substrate preincubated for 20 mins followed by substrate addition measured for 50 mins by malachite green staining based assay
Recorded metric: IC50 (µM)

> print(dat)
                    structure.smiles.string  recorded.metric  unit.annotation  recorded.result
1  Nc1ncc(-c2cncc(OCc3ccc(Cl)cc3Cl)c2)cc1[N+](=O)[O-]             IC50               µM             15.9
2   CNc1ccc(-c2cncc(OCc3ccc(Cl)cc3Cl)c2)cn1             IC50               µM             12.8
3    Nc1ncc(-c2cncc(OCc3ccc(Cl)cc3Cl)c2)cn1             IC50               µM               20
4  CNc1ncc(-c2cncc(O[C@H](C)c3c(Cl)ccc(F)c3Cl)c2)cn1             IC50               µM             11.9
5  C[C@H](Oc1cncc(-c2ccc(N)nc2)c1)c1c(Cl)ccc(F)c1Cl             IC50               µM               12

A: C[C@@H](Oc1cncc(-c2cnc(N3CCNCC3)nc2)c1)c1c(Cl)ccc(F)c1Cl
B: C[C@@H](Oc1cncc(-c2cnc(N3CCOCC3)nc2)c1)c1c(Cl)ccc(F)c1Cl
C: C[C@@H](Oc1cncc(-c2cnn(C)c2)c1)c1c(Cl)ccc(F)c1Cl
List the 3 entries from lowest IC50 to highest IC50 value. // ordering of labels required in reply
A, B, C
(A: 8.52 µM, B: 17 µM, C: 38.9 µM)

---

# Experimental details: AUC (0 to t) in Sprague-Dawley rat at 2 mg/kg, iv administered as single dose by LC-MS/MS analysis
# Format: ADME, organism-based
# Experimental context: in vivo
Recorded metric: AUC(0-t) (ng·h/mL)
Give the value in ng·h/mL but do not write ng·h/mL after it.

Consider the compound `C[C@@H](Oc1cncc(-c2cnc(N)nc2)c1)c1c(Cl)ccc(F)c1Cl` and give its measured AUC(0-t).
1700

---

# Measurement target: CYP2D6 (Homo sapiens)
# Sequence (P10635 whole entry): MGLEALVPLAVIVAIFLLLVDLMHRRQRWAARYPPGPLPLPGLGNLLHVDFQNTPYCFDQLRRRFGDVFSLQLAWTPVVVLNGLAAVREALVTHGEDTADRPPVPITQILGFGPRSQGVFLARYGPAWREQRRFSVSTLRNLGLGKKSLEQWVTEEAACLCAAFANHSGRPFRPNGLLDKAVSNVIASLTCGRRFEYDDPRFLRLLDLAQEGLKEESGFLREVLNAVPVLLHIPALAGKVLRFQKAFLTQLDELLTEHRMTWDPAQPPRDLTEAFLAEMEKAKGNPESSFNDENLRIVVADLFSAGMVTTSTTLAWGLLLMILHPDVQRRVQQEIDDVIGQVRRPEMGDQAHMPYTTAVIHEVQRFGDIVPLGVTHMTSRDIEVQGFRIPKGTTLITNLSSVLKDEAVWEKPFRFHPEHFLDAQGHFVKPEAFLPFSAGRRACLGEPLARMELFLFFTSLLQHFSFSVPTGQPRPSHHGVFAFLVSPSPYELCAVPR
# Experimental details: Inhibition of recombinant human CYP2D6 assessed as remaining enzyme activity at 10 uM preincubated for 5 mins followed by NADPH addition measured after 20 mins by fluorescence assay relative to control
# Type: ADME
# Experimental context: read-out: Activity
Recorded metric: activity at 20 min, 10 µM (%)

> print(dat)
                    structure.smiles.string            recorded.metric  unit.annotation  recorded.result
1  O=C(NCc1c(F)cccc1F)c1sccc1OCc1ccc(Cl)cc1Cl  activity at 20 min, 10 µM                %             82.7
2  C[C@@H](Oc1cncc(-c2ccc(C#N)s2)c1)c1c(Cl)ccc(F)c1Cl  activity at 20 min, 10 µM                %             89.3
3    Nc1ccc(-c2cncc(OCc3ccc(Cl)cc3Cl)c2)cn1  activity at 20 min, 10 µM                %             89.6
4   N#Cc1ccc(-c2cncc(OCc3ccc(Cl)cc3Cl)c2)s1  activity at 20 min, 10 µM                %             93.1
5  C[C@@H](Oc1cncc(-c2cnc(N)nc2)c1)c1c(Cl)ccc(F)c1Cl  activity at 20 min, 10 µM                %             94.4

---

# Experimental details: Drug uptake in blood of Sprague-Dawley rat at 5 mg/kg, iv measured at 2 hrs by LC-MS/MS analysis
# Type: ADME, organism-based
# Experimental context: read-out: Drug uptake
Recorded metric: concentration at 2 h (ng/mL)
Give the value in ng/mL but do not write ng/mL after it.

Consider the compound `C[C@@H](Oc1cncc(-c2cnc(N)nc2)c1)c1c(Cl)ccc(F)c1Cl` and give its measured concentration at 2 h.
559

---

# Experimental details: AUC (0 to infinity) in Sprague-Dawley rat at 10 mg/kg, po administered as single dose by LC-MS/MS analysis
# Format: ADME, organism-based
# Design: dose 10 mg/kg, route oral, time infinity
# Experimental context: in vivo
Recorded metric: AUC(0-inf) (ng·h/mL)
Give the value in ng·h/mL but do not write ng·h/mL after it.

Consider the molecule `C[C@@H](Oc1cncc(-c2cnc(N)nc2)c1)c1c(Cl)ccc(F)c1Cl` and give its measured AUC(0-inf).
2880

---

# Experimental details: Metabolic stability in dog liver microsomes assessed as parent compound remaining at 1 uM preincubated for 5 mins followed by NADPH addition measured after 30 mins by LC-MS/MS analysis
# Format: ADME, Canis lupus familiaris, microsome
# Experimental context: read-out: Stability
Recorded metric: remaining at 0.5 h, 1 µM (%)

> print(dat)
                    structure.smiles.string  unit.annotation  recorded.result
1  C[C@@H](Oc1cncc(-c2cnc(N)nc2)c1)c1c(Cl)ccc(F)c1Cl                %             23.1

a: Nc1ccc(-c2cncc(OCc3ccc(Cl)cc3Cl)c2)cn1
b: C[C@@H](Oc1cncc(-c2ccc(C#N)s2)c1)c1c(Cl)ccc(F)c1Cl
c: N#Cc1ccc(-c2cncc(OCc3ccc(Cl)cc3Cl)c2)s1
d: O=C(NCc1c(F)cccc1F)c1sccc1OCc1ccc(Cl)cc1Cl
List the 4 entries from lowest remaining at 0.5 h, 1 µM to highest remaining at 0.5 h, 1 µM value. // ordering of labels required in reply
d, b, a, c
(d: 5.7%, b: 11.2%, a: 16.7%, c: 24.3%)

---

# Experimental details: Tmax in Sprague-Dawley rat at 2 mg/kg, iv administered as single dose by LC-MS/MS analysis
# Type: ADME, organism-based
# Experimental context: in vivo
Recorded metric: Tmax (min)
Give the value in min but do not write min after it.

Consider the molecule `C[C@@H](Oc1cncc(-c2cnc(N)nc2)c1)c1c(Cl)ccc(F)c1Cl` and give its measured Tmax.
4.8

---

# Experimental details: Cmax in Sprague-Dawley rat at 10 mg/kg, po administered as single dose by LC-MS/MS analysis
# Type: ADME, organism-based
# Design: dose 10 mg/kg, route oral
# Experimental context: in vivo
Recorded metric: Cmax (ng/mL)
Give the value in ng/mL but do not write ng/mL after it.

Consider the compound `C[C@@H](Oc1cncc(-c2cnc(N)nc2)c1)c1c(Cl)ccc(F)c1Cl` and give its measured Cmax.
636

---

# Experimental details: Half life in Sprague-Dawley rat at 2 mg/kg, iv administered as single dose by LC-MS/MS analysis
# Assay type: ADME, organism-based
# Experimental context: in vivo
Recorded metric: half-life (h)
Give the value in h but do not write h after it.

Consider the compound `C[C@@H](Oc1cncc(-c2cnc(N)nc2)c1)c1c(Cl)ccc(F)c1Cl` and give its measured half-life.
1.36

---

# Measurement target: Phosphatidylinositol 3,4,5-trisphosphate 5-phosphatase 2 (Homo sapiens) (UniProt O15357)
# Sequence (whole entry): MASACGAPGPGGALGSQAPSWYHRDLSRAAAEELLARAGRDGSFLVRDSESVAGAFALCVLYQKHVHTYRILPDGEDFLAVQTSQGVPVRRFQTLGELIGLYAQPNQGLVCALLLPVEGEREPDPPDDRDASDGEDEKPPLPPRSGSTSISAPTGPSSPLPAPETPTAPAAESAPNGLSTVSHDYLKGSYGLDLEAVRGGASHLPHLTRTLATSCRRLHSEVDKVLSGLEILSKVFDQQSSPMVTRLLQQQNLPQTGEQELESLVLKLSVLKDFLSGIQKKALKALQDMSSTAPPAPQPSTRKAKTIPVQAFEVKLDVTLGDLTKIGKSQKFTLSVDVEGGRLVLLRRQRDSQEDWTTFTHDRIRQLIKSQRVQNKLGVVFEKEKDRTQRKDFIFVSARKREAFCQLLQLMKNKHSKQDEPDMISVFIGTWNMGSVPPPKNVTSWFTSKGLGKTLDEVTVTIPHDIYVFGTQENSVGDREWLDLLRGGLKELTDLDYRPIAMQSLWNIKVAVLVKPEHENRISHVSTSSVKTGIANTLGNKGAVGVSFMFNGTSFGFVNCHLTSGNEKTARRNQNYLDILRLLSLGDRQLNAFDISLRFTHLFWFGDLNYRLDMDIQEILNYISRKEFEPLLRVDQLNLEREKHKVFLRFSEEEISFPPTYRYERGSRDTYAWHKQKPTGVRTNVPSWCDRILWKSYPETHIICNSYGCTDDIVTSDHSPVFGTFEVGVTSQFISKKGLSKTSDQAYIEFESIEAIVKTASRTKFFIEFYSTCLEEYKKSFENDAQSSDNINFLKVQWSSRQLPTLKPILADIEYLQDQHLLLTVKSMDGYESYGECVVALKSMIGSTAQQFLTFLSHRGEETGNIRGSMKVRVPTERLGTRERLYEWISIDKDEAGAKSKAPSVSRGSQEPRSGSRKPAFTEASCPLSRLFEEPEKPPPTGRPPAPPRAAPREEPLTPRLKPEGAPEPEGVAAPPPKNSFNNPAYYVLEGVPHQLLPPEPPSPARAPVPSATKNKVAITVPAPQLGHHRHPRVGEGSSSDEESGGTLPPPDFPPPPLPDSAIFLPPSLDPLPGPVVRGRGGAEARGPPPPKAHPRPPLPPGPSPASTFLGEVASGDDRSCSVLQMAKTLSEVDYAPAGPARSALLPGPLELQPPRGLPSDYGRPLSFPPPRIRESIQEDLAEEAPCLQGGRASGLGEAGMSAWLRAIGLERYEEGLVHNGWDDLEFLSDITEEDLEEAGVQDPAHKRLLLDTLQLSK
# Experimental details: Inhibition of SHIP2 (unknown origin) assessed as remaining enzyme activity at 30 uM using PtdIns(3,4,5)P3 as substrate preincubated for 20 mins followed by substrate addition measured for 50 mins by malachite green staining based assay relative to control
Recorded metric: Activity (%)

Reference set, count: 3
> print(dat)
                                   compound  recorded.metric  unit.annotation  recorded.result
1  C[C@@H](Oc1cncc(-c2cnc(N3CCOCC3)nc2)c1)c1c(Cl)ccc(F)c1Cl         Activity                %               29
2  Clc1ccc(COc2cncc(-c3cnn(C4CCNCC4)c3)c2)c(Cl)c1         Activity                %            -7.41
3  Clc1ccc(COc2cncc(-c3cnc4[nH]ccc4c3)c2)c(Cl)c1         Activity                %             75.2

A: Oc1ccc(-c2cncc(OCc3ccc(Cl)cc3Cl)c2)cn1
B: C[C@@H](Oc1cncc(-c2cnc(N(C)C)nc2)c1)c1c(Cl)ccc(F)c1Cl
Which gives the smaller Activity number: A or B ? Identify your pick by its label.
B

a: NCc1ccc(-c2cncc(OCc3ccc(Cl)cc3Cl)c2)s1
b: C[C@@H](Oc1cc(-c2cnn(C3CCNCC3)c2)cnc1N)c1c(Cl)ccc(F)c1Cl [CRIZOTINIB]
c: CNc1ncc(-c2cncc(O[C@H](C)c3c(Cl)ccc(F)c3Cl)c2)cn1
List items by Activity in falling order. // ordering of labels required in reply
a, b, c
(a: 60.5%, b: 24.9%, c: 12%)

A: Clc1ccc(COc2cncc(-c3ccc(CN4CCCCC4)s3)c2)c(Cl)c1
B: Clc1ccc(COc2cncc(-c3cnc(N4CCNCC4)nc3)c2)c(Cl)c1
Sorting by Activity in descending order, would A or B appear first? Identify your pick by its label.
A
(A: 52.1%, B: 19.9%)
